- System: MGC 803 (human gastric cancer cell)
- Test details: Solid tumor cell growth inhibition, MTT, 72 h (Example 7)
- Format: cell-based
- Measurement parameters: Homo sapiens
- Procedure: […] Obtaining 4000 well-growing human solid tumor cells and inoculating them into wells of a 96-well cell culture plate. […] Then the viable cell concentration is determined by the MTT method and the cell viability (%) after drug treatment is calculated. […]
Measurement label: IC50 (µg/mL)

1. COc1ccc2cc1Oc1ccc(cc1)C[C@H]1c3cc(c(OC)cc3CCN1C)Oc1c(OC)c(OC)c(CN3CC=CC3)c3c1[C@H](C2)N(C)CC3
2. COc1ccc2cc1Oc1ccc(cc1)C[C@H]1c3cc(c(OC)cc3CCN1C)Oc1c(OC)c(OC)c(CN(C)[C@@H](C)c3ccccc3)c3c1[C@H](C2)N(C)CC3
Rank 1 against 2 by their IC50 values and give the higher one. In your reply, give the label of the chosen option.
1
(1: 1.26 µg/mL, 2: 0.73 µg/mL)
